Test: Mean residence time (infinity) in MDR1a/b(-/-) FVB mouse at 10 mg/kg, po
Assay type: ADME, organism-based
Design: dose 10 mg/kg, route oral
Details: in vivo
readoutKind: MRT inf

(Q) Given the entry `CC(C)=CCC[C@](C)(O[C@@H]1O[C@H](CO)[C@@H](O)[C@H](O)[C@H]1O)[C@H]1CC[C@]2(C)[C@@H]1[C@H](O)C[C@@H]1[C@@]3(C)CC[C@H](O)C(C)(C)[C@@H]3CC[C@]12C` , report its measured MRT inf.
(A) 30.7 h

---

Test: Permeability across basolateral to apical side in MDCK2 cells at 2 uM
Format: ADME, cell-based, Canis lupus familiaris, MDCK-II
Conditions: dog, MDCK; read-out: permeability
readoutKind: Papp B→A at 2 µM (×10⁻⁶ cm/s)
The figure you give is taken to be in ×10⁻⁶ cm/s; do not add the unit.

(Q) Request the reported Papp B→A at 2 µM associated with `CC(C)=CCC[C@](C)(O[C@@H]1O[C@H](CO)[C@@H](O)[C@H](O)[C@H]1O)[C@H]1CC[C@]2(C)[C@@H]1[C@H](O)C[C@@H]1[C@@]3(C)CC[C@H](O)C(C)(C)[C@@H]3CC[C@]12C`
(A) 1.13
